Target: FGFR2A (Homo sapiens)
Construct: purchased in-house DSF kinase panel (SGC-style construct names; the trailing letter is the construct ID)
Sequence (P21802 458-770): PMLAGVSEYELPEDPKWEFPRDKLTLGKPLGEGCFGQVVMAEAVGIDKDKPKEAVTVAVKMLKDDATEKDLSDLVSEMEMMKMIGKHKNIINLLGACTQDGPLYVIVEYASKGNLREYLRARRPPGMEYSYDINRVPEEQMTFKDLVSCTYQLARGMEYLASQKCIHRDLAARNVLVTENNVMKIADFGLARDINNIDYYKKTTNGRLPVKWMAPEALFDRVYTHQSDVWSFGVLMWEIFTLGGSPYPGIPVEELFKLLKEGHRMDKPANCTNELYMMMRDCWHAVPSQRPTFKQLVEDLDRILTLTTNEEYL
Experiment: DSF Tm panel
Format: binding
Conditions: 10 μM compound
measured attribute: ΔTm at 10 µM (°C)

O=C(NCc1cccc(Cl)c1)Nc1ccc2cc1OCCOCCNc1ccn3ncc-2c3n1 [compound 18] ... 3.3
O=C(NCc1ccc(Cl)cc1Cl)Nc1ccc2cc1OCCOCCNc1ccn3ncc-2c3n1 [compound 20] ... 0.9

A = O=C(NCc1ccc(Cl)cc1F)Nc1ccc2cc1OCCOCCNc1ccn3ncc-2c3n1 [compound 21]
B = CN1CCN(C(=O)Nc2ccc3cc2OCCOCCNc2ccn4ncc-3c4n2)CC1 [compound 35]
C = O=C(NCc1ccccc1)Nc1ccc2cc1OCCOCCNc1ccn3ncc-2c3n1 [compound 16]
Problem: Sequence the entries by ΔTm at 10 µM, beginning with the highest number. The response must list the labels following the requested ordering.
Solution: C, A, B
(C: 4.8 °C, A: 2.3 °C, B: 1.5 °C)

A = Cc1cc(Cl)ccc1CNC(=O)Nc1ccc2cc1OCCOCCNc1ccn3ncc-2c3n1 [compound 23]
B = Cc1ccc(F)cc1CNC(=O)Nc1ccc2cc1OCCOCCNc1ccn3ncc-2c3n1 [compound 26]
Problem: Parameter metric = ΔTm at 10 µM. Return the lower-valued option from A and B . Selection: enter the item's label.
Solution: A
